The reported measurements were obtained from patent US20250051338A1.

# target.under.test: TYK2 (Homo sapiens)
# Sequence (P29597 whole entry): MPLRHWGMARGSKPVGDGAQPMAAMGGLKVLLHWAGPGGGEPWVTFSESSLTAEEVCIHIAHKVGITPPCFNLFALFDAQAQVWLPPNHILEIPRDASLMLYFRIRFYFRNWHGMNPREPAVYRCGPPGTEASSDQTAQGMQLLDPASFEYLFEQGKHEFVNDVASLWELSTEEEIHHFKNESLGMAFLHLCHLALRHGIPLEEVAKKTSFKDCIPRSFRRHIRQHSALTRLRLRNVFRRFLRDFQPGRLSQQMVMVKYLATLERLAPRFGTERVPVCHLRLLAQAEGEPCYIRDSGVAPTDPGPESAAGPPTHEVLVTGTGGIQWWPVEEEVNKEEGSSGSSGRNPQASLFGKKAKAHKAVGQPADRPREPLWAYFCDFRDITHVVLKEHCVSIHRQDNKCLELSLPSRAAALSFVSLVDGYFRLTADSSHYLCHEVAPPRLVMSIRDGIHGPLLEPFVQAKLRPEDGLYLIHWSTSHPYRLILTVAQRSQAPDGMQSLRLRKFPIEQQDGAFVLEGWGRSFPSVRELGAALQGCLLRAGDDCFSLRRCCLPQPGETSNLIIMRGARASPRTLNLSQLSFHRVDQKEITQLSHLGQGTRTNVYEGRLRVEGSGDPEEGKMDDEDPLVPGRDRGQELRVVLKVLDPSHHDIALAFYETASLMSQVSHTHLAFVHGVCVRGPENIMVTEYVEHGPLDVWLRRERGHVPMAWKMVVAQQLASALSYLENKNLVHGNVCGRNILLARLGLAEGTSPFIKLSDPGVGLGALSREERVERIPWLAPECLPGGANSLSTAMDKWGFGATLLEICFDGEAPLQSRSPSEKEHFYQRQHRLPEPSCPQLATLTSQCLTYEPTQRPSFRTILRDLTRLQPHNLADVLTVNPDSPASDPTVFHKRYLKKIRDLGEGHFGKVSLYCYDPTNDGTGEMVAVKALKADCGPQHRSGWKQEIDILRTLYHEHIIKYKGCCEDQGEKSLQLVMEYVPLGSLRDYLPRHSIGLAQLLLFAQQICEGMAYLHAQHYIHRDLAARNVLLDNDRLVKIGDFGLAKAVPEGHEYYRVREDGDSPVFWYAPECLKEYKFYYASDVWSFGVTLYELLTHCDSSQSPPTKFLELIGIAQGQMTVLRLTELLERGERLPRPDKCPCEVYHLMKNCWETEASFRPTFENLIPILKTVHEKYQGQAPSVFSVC
# measurement.protocol: TYK2 degradation MSD assay in EBV-B cells
# Assay type: cell-based
# Parameters: endogenous in cells; host or cells: EBV-B cells
# experimental.setup: 4 to 24 hours incubation, read-out: TYK2 MSD DC50 rating in EBV-B
quantity.kind: DC50

CNc1cc(Nc2cccc(CN(C)C3CCN(c4cccc5c4n(C)c(=O)n5C4CCC(=O)NC4=O)CC3)c2)nn2c(C(=O)NC3CC3)cnc12 (centres unmarked); > 100 nM

Tested on TYK2 (Homo sapiens), the item Cn1c(=O)n(C2CCC(=O)NC2=O)c2ccc(C3CCN(CCCNc4cc(Nc5cccn(-c6ccccn6)c5=O)nn5c(C(=O)N[C@@H]6C[C@@H]6F)cnc45)CC3)cc21 (some centres unmarked) showed DC50 equal to > 100 nM

Assay TYK2 (Homo sapiens), sample CNc1cc(-c2ccc(C(=O)NCCCCCCc3cccc4c3n(C)c(=O)n4C3CCC(=O)NC3=O)cc2)nn2c(C(=O)N[C@@H]3C[C@@H]3F)cnc12 (some centres unmarked) , DC50 read: > 100 nM

Simply: CNc1cc(Oc2ccn(C3CCN(CC4CCN(c5ccc(-c6ccc7c(c6)n(C)c(=O)n7C6CCC(=O)NC6=O)cc5)CC4)CC3)n2)nn2c(C(=O)N[C@@H]3C[C@@H]3F)cnc12 (some centres unmarked) , TYK2 (Homo sapiens), DC50 = > 100 nM

I looked up CCNC(=O)c1cnc(Nc2cc(C(=O)NCCCCc3cccc4c3n(C)c(=O)n4C3CCC(=O)NC3=O)ccn2)cc1Nc1cccc(-c2ncc(F)cn2)c1OC (centres unmarked) and its DC50 for TYK2 (Homo sapiens) was > 100 nM

Value (DC50, TYK2 (Homo sapiens)) for record CNC(=O)c1cnc(Nc2ccc(CN3CC(c4ccc5c(c4)n(C)c(=O)n5C4CCC(=O)NC4=O)C3)cn2)cc1Nc1cccc(-c2ncc(F)cn2)c1OC (centres unmarked) = > 100 nM

Result for CNc1cc(Nc2cccc(CN3CCC([C@@H]4CCN(c5ccc6c(c5)n(C)c(=O)n6C5CCC(=O)NC5=O)C4)CC3)c2)nn2c(C(=O)NC3CC3)ncc12 (some centres unmarked) , tested on TYK2 (Homo sapiens), DC50: > 100 nM
